Test: NCI Yeast Anticancer Drug Screen. Data for the bub3 strain (AID 167)
Conditions: S. cerevisiae bub3 mutant strain, at 50.0 µM, stronger effect = higher value
About 79,000 compounds went through this panel and 15% of them were active in at least one assay; those are over-represented in the sample as a whole.
Param threshold (40%) applies to growth inhibition; output true (1) when value >= threshold, false (0) when value < threshold.

[
  {
    "Compound": "O=C(c1ccc(Oc2ccccc2)cc1)C(C(c1ccccc1)N1CCOCC1)N1CCOCC1 (stereo unspecified)",
    "Cat": "true (1)"
  },
  {
    "Compound": "C(=C/c1ccccc1)/C=N/Nc1ccccc1",
    "Cat": "false (0)"
  },
  {
    "Compound": "CCCC(C)c1ccc(O)cc1 (stereo unspecified)",
    "Cat": "false (0)"
  },
  {
    "Compound": "O=C(O)c1nnsc1-c1ccc(-c2snnc2C(=O)O)cc1",
    "Cat": "false (0)"
  },
  {
    "Compound": "c1ccc(-c2cc(N3CCCCC3)c(-c3ccccc3)o2)cc1",
    "Cat": "true (1)"
  },
  {
    "Compound": "CN=c1ss/c(=N\\C(=S)N(C)C)n1-c1ccccc1",
    "Cat": "true (1)"
  },
  {
    "Compound": "O=c1ccn(C2OC(COC(c3ccccc3)(c3ccccc3)c3ccccc3)C(O)C2O)c(=O)[nH]1 (stereo unspecified)",
    "Cat": "true (1)"
  },
  {
    "Compound": "CCCCCCCCCCCC(=O)OCCOP(=O)(OCC)OCC",
    "Cat": "false (0)"
  },
  {
    "Compound": "Fc1ccc(NC(=S)SCc2ccc(Cl)cc2)c(F)c1",
    "Cat": "true (1)"
  },
  {
    "Compound": "CN(C)CCCC1(c2ccccc2)SC(C)(C)c2ccc(Cl)cc21 (stereo unspecified)",
    "Cat": "false (0)"
  },
  {
    "Compound": "C/C(=C/C(=O)N1c2ccccc2CC1c1c[nH]c2ccccc12)C(=O)O (stereo unspecified)",
    "Cat": "false (0)"
  }
]
